# study-system: recombinant rat MASP2 active protease (amino acids 296-685, C-terminal His Tag) (rat, UniProt Q9JJS8 296-685)
# Sequence (Q9JJS8 other isoform, or with tags, fused parts or gaps limits assumed): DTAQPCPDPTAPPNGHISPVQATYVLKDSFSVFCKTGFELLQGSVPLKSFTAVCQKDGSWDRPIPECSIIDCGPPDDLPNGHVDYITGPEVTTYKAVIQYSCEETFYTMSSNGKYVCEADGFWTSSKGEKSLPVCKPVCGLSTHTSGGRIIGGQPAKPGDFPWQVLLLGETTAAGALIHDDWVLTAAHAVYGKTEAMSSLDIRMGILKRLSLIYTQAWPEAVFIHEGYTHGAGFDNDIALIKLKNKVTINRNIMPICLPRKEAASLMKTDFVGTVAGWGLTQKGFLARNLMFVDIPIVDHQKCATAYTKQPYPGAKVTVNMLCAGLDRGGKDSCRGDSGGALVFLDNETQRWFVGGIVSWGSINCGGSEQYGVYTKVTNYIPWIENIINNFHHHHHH
# assay-notes: cell-based or functional assay
Numbered stars: 1 amine (or outer) side, 2 acyl side, 3 side chain; on linkers, the order of the positions; unused ones are H or OH. Bridge positions count the residues as written; N and C are the ends. Square brackets hold non-standard residues; d marks the D form. Ends that are not written are not given here. X4 = (1S,3R)‑3‑(Amino)cyclopentanecarboxylic acid, O=C([C@H]1CC[C@@H](N[*:1])C1)[*:2]; X8 = (R)‑4‑Amino‑6‑methylheptanoic acid, CC(C)C[C@@H](CCC(=O)[*:2])N[*:1]; 4‑Aminomethylphenylacetic acid = O=C(Cc1ccc(CN[*:1])cc1)[*:2]; Oic = O=C(O)[C@@H]1C[C@@H]2CCCC[C@@H]2N1; PEG6 = NCCOCCOCCOCCOCCOCCOCCC(=O)O; tBuAla = CC(C)(C)C[C@H](N)C(=O)O; Pen = CC(C)(S)[C@H](N)C(=O)O; Nva = CCC[C@H](N)C(=O)O; Dap = NC[C@H](N)C(=O)O; Sar = CNCC(=O)O
Consider the following binders; for each one, report its rat MASP2 IC50.
The answer is to be given in nM; state only the numeric part.

Item [Sar]ICRRS[tBuAla]PP[Nva][Pen]IP-NH2 (disulfide 3-11; N-terminus assumed; SMILES CCC[C@@H]1NC(=O)[C@@H]2CCCN2C(=O)[C@@H]2CCCN2C(=O)[C@H](CC(C)(C)C)NC(=O)[C@H](CO)NC(=O)[C@H](CCCNC(=N)N)NC(=O)[C@H](CCCNC(=N)N)NC(=O)[C@@H](NC(=O)[C@@H](NC(=O)CNC)[C@@H](C)CC)CSSC(C)(C)[C@@H](C(=O)N[C@H](C(=O)N2CCC[C@H]2C(N)=O)[C@@H](C)CC)NC1=O) [Example 448: ((N-Me)G)-IC+RRS-((tBu)A)-PP-(Nva)-(Pen)+IP-NH2] : provide rat MASP2 IC50
5000

Item [Sar]ICSRSLP[Oic]I[Pen]IP[4‑Aminomethylphenylacetic acid]-OH (disulfide 3-11; N-terminus assumed; SMILES CC[C@H](C)[C@H](NC(=O)CNC)C(=O)N[C@H]1CSSC(C)(C)[C@@H](C(=O)N[C@H](C(=O)N2CCC[C@H]2C(=O)NCc2ccc(CC(=O)O)cc2)[C@@H](C)CC)NC(=O)[C@H]([C@@H](C)CC)NC(=O)[C@@H]2C[C@@H]3CCCC[C@@H]3N2C(=O)[C@@H]2CCCN2C(=O)[C@H](CC(C)C)NC(=O)[C@H](CO)NC(=O)[C@H](CCCNC(=N)N)NC(=O)[C@H](CO)NC1=O) [Example 476: ((N-Me)G)-IC+SRSLP-(Oic)-I-(Pen)+IP-(4-Aminomethylphenylacetic acid)-OH] : provide rat MASP2 IC50
61

Item [Sar]ICSRSLP[Oic]I[Pen]IP[X4]-OH (disulfide 3-11; N-terminus assumed; SMILES CC[C@H](C)[C@H](NC(=O)CNC)C(=O)N[C@H]1CSSC(C)(C)[C@@H](C(=O)N[C@H](C(=O)N2CCC[C@H]2C(=O)N[C@@H]2CC[C@H](C(=O)O)C2)[C@@H](C)CC)NC(=O)[C@H]([C@@H](C)CC)NC(=O)[C@@H]2C[C@@H]3CCCC[C@@H]3N2C(=O)[C@@H]2CCCN2C(=O)[C@H](CC(C)C)NC(=O)[C@H](CO)NC(=O)[C@H](CCCNC(=N)N)NC(=O)[C@H](CO)NC1=O) [Example 452: ((N-Me)G)-IC+SRSLP-(Oic)-I-(Pen)+IP-((1S,3R)-3-(Amino)cyclopentanecarboxylic acid)-OH] : provide rat MASP2 IC50
37

Item AICSRS[tBuAla]PPI[Pen]IP[dE]-NH2 (disulfide 3-11; N-terminus assumed; SMILES CC[C@H](C)[C@H](NC(=O)[C@H](C)N)C(=O)N[C@H]1CSSC(C)(C)[C@@H](C(=O)N[C@H](C(=O)N2CCC[C@H]2C(=O)N[C@H](CCC(=O)O)C(N)=O)[C@@H](C)CC)NC(=O)[C@H]([C@@H](C)CC)NC(=O)[C@@H]2CCCN2C(=O)[C@@H]2CCCN2C(=O)[C@H](CC(C)(C)C)NC(=O)[C@H](CO)NC(=O)[C@H](CCCNC(=N)N)NC(=O)[C@H](CO)NC1=O) [Example 21: AIC+SRS-((tBu)A)-PPI-(Pen)+IPe-NH2] : provide rat MASP2 IC50
40

Item [Sar]ICSRSLP[Oic]I[Pen]IP[5‑Azaspiro(2.4)heptane‑1‑carboxylic acid]-OH (disulfide 3-11) [Example 438: ((N-Me)G)-IC+SRSLP-(Oic)-I-(Pen)+IP-((5-Azaspiro[2.4]heptane-1-carboxylic acid)-OH] : provide rat MASP2 IC50
22

Item [Sar]ICSRSLP[Oic]I[Pen]IP[PEG6]-OH (disulfide 3-11; N-terminus assumed; SMILES CC[C@H](C)[C@H](NC(=O)CNC)C(=O)N[C@H]1CSSC(C)(C)[C@@H](C(=O)N[C@H](C(=O)N2CCC[C@H]2C(=O)NCCOCCOCCOCCOCCOCCOCCC(=O)O)[C@@H](C)CC)NC(=O)[C@H]([C@@H](C)CC)NC(=O)[C@@H]2C[C@@H]3CCCC[C@@H]3N2C(=O)[C@@H]2CCCN2C(=O)[C@H](CC(C)C)NC(=O)[C@H](CO)NC(=O)[C@H](CCCNC(=N)N)NC(=O)[C@H](CO)NC1=O) [Example 472: ((N-Me)G)-IC+SRSLP-(Oic)-I-(Pen)+IP-(PEG5(22 atoms))-OH] : provide rat MASP2 IC50
49

Item [Sar]ICSRSLP[Oic]I[Pen]IP[X8]-OH (disulfide 3-11; N-terminus assumed; SMILES CC[C@H](C)[C@H](NC(=O)CNC)C(=O)N[C@H]1CSSC(C)(C)[C@@H](C(=O)N[C@H](C(=O)N2CCC[C@H]2C(=O)N[C@H](CCC(=O)O)CC(C)C)[C@@H](C)CC)NC(=O)[C@H]([C@@H](C)CC)NC(=O)[C@@H]2C[C@@H]3CCCC[C@@H]3N2C(=O)[C@@H]2CCCN2C(=O)[C@H](CC(C)C)NC(=O)[C@H](CO)NC(=O)[C@H](CCCNC(=N)N)NC(=O)[C@H](CO)NC1=O) [Example 450: ((N-Me)G)-IC+SRSLP-(Oic)-I-(Pen)+IP-((R)-4-Amino-6-methylheptanoic acid)-OH] : provide rat MASP2 IC50
52

Item [Sar]ICSRSLP[Oic]I[Pen]IP[Dap]-OH (disulfide 3-11; also: Dap at position 14 joined through its 3-amino group) [Example 467: ((N-Me)G)-IC+SRSLP-(Oic)-I-(Pen)+IP-(*Dap)-OH] : provide rat MASP2 IC50
70

Item FICSRS[tBuAla]PPI[Pen]IPD-NH2 (disulfide 3-11; N-terminus assumed; SMILES CC[C@H](C)[C@H](NC(=O)[C@@H](N)Cc1ccccc1)C(=O)N[C@H]1CSSC(C)(C)[C@@H](C(=O)N[C@H](C(=O)N2CCC[C@H]2C(=O)N[C@@H](CC(=O)O)C(N)=O)[C@@H](C)CC)NC(=O)[C@H]([C@@H](C)CC)NC(=O)[C@@H]2CCCN2C(=O)[C@@H]2CCCN2C(=O)[C@H](CC(C)(C)C)NC(=O)[C@H](CO)NC(=O)[C@H](CCCNC(=N)N)NC(=O)[C@H](CO)NC1=O) [Example 211: FIC+SRS-((tBu)A)-PPI-(Pen)+IPD-NH2] : provide rat MASP2 IC50
23

FYI, the data here is from patent US20210246166A1.
